- assayTarget: β-catenin (Homo sapiens)
- Sequence (P35222 whole entry): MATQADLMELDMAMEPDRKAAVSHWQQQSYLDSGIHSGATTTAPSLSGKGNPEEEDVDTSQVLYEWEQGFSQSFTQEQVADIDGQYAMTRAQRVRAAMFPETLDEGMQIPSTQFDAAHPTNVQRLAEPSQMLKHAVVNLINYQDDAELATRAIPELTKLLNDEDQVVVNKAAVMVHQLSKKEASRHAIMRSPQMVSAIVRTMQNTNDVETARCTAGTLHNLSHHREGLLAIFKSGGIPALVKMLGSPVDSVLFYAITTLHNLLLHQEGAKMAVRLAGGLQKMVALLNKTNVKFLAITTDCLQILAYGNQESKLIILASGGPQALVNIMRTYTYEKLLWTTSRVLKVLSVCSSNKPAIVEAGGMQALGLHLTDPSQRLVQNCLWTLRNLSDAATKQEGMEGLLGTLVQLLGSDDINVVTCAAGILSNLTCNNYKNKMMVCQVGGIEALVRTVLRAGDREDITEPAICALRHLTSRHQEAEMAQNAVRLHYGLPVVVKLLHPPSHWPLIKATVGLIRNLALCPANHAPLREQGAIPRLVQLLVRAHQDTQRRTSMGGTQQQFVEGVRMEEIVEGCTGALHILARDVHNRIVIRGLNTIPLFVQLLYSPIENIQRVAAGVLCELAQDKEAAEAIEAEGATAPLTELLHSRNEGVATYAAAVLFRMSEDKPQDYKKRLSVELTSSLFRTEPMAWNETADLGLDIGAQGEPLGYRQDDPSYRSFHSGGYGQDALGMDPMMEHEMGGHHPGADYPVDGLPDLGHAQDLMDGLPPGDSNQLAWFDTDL
valueKind: Kd
Write the numeric value and append its unit.

Provide Kd, tested on β-catenin (Homo sapiens), for CC(C)c1ccc(-c2cccc(S(=O)(=O)N3CCCC(c4cccc(OC(C)(C)C(=O)NCC(=O)N5CCC[C@H]5CN)c4)C3)c2)cc1 (stereo partly shown) .
284 nM

Cited source for all entries: patent EP4647428A1
